SYSTEM: C-terminal His6-tagged, recombinant, human JAK2, amino acids 808-end (Homo sapiens, UniProt O60674)
Construct: human JAK2, amino acids 808-end; His6 (C)
Sequence (O60674 808-1132 limits assumed): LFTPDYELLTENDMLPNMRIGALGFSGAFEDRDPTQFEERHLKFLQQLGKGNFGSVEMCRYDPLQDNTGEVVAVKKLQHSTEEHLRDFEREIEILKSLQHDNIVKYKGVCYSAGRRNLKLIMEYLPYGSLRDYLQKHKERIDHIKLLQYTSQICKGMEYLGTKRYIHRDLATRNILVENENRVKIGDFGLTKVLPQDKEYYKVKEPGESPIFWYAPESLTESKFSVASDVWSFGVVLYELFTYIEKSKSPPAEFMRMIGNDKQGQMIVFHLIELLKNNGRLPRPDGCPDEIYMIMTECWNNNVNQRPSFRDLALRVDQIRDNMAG
MEASUREMENT DESCRIPTION: JAK2 kinase activity assay (Alphascreen)
MEASUREMENT SETUP: 150 pM JAK2 enzyme, 30 μM ATP, 80 nM Tyk2 peptide substrate, 60 minutes, room temperature; read-out: JAK inhibitory activity IC50
REPORTED ENDPOINT: pIC50
Numbers only, as −log10 of the molar value.

Below are worked cases with known answers.
MOLECULAR STRING	TEST VALUE
Cc1cnc(Nc2nc(N[C@@H](C)c3ccc(F)cn3)ncc2Cl)s1	6.04
Cc1cnc(Nc2nc(N[C@@H](C)c3ncc(F)cn3)nc(N3CCOCC3)c2F)s1	8.52

Pending compound:
Can you look up the measured pIC50 of `Cc1cnc(Nc2nc(N[C@@H](C)c3ccc(F)cc3)ncc2Cl)s1` for me? 8.22

----------
For each record, write down the corresponding IC50.
SYSTEM: C-terminal His6-tagged, recombinant, human JAK2, amino acids 808-end (Homo sapiens, UniProt O60674)
Construct: human JAK2, amino acids 808-end; His6 (C)
MEASUREMENT DESCRIPTION: JAK2 kinase activity assay (Alphascreen)
MEASUREMENT SETUP: 150 pM JAK2 enzyme, 30 μM ATP, 80 nM Tyk2 peptide substrate, 60 minutes, room temperature; read-out: JAK inhibitory activity IC50
Answers are plain numbers, in nM.

COMPOUND	UNIT ABBREVIATION	IC50
C[C@H](Nc1nc(Nc2ncc(C#N)s2)cc(N2CCOCC2)n1)c1ccc(F)cn1 [Example 8]	nM	3

Give me IC50 for each of these compounds, listed below.
1. COC(=O)c1cnc(Nc2nc(N[C@@H](C)c3ccc(F)cc3)ncc2Cl)s1 [Example 2]
2. Cc1cnc(Nc2cc(N3CCN(C)CC3)nc(N[C@@H](C)c3ccc(F)cn3)n2)s1 [Example 5]

170
3

Value lookup for IC50; key = COc1cc(Nc2ncc(C)s2)nc(N[C@@H](C)c2ncc(F)cn2)n1 [Example 10] 3
